Recorded koff for the following binders
Experimental Target: T1, cyno LAIR-1-ECD (cynomolgus monkey)
T1 construct: Recombinant, expressed in mammalian cells; also called extracellular region of cyno LAIR-1
T1 chain: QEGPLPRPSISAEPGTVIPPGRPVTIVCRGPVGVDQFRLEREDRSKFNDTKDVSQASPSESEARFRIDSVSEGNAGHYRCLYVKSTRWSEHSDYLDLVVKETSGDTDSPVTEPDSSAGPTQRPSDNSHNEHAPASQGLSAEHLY
Measurement Description: SPR (Biacore); antibody captured by anti-Fc; LAIR-1-ECD injected;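 further: Anti-Fc immobilized on a CM5 chip, LAIR-1-ECD (human or cynomolgus) injected at 3.3-10 nM and 25 °C, kinetics fitted by simultaneous global fit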

Binder: anti-LAIR-1 antibody 108D10 (antibody, V domains shown, Monoclonal antibody from immunized mice (hybridoma)) VH: EVQLVETGGGLVQPKGSLKLSCAASGFTFNINAMNWVRQAPGKGLEWVARIRTKNNNYATYYADSVKDRFTISRDDSESMLYLQMNNLKTEDTAMYYCVRDRYGGAMAYWGQGTSVTVSS VL: DIQMTQSSSSFSVSLGDRVTITCKASEDIYNRLAWYQQKPGNVPRLLISSATSLETGVPSRFSGSGSGKDYTLSLTSLQSEDVATYYCQQYWTIPYTFGGGTKLEIK
koff / s⁻¹: 0.0039

Binder: anti-LAIR-1 antibody 62G10 (antibody, V domains shown, Monoclonal antibody from immunized mice (hybridoma)) VH: EVQLVETGGGLVQPKGSLKLSCATSGFTFNINAMNWVRQAPGKGLEWVARIRTKNNNFATYYADSVKDRFTISRDDSQSMLYLQMNNLKTEDTAMYYCVRGPYFDYWGQGTTLTVSS VL: DIQMTQSPASQSASLGESVTITCLASQTIGTWLAWYQQKPGKSPQLLIYAATSLADGVPSRFSGSGSGTKFSFKISNLQAEDFVTYYCQQLYSTPYTFGGGTKLEIK
koff / s⁻¹: 0.001

Binder: anti-LAIR-1 antibody 47H1 (antibody, V domains shown, Monoclonal antibody from immunized mice (hybridoma)) VH: EVQLVETGGGLVQPKGSLKLSCAASGFTFNINAMNWVRQAPGKGLEWVARIRTKNNNYATFYADSVKDRFTISRDDSQSMLYLQMNNLKTDDTAMYYCVRDRAGFFAYWGQGTPVTVSA VL: DIQMTQSPASQSASLGESVTITCLASQTIGTWLGWYRQKPGKSPQLLIYAATSLADGVPSRFSGSGSGTKFSFKISSLQAEDFVIYYCQQLYSTPLTFGSGTKLEIK
koff / s⁻¹: 0.00044
